Target: SMARCA2 (Homo sapiens)
Sequence (P51531 whole entry): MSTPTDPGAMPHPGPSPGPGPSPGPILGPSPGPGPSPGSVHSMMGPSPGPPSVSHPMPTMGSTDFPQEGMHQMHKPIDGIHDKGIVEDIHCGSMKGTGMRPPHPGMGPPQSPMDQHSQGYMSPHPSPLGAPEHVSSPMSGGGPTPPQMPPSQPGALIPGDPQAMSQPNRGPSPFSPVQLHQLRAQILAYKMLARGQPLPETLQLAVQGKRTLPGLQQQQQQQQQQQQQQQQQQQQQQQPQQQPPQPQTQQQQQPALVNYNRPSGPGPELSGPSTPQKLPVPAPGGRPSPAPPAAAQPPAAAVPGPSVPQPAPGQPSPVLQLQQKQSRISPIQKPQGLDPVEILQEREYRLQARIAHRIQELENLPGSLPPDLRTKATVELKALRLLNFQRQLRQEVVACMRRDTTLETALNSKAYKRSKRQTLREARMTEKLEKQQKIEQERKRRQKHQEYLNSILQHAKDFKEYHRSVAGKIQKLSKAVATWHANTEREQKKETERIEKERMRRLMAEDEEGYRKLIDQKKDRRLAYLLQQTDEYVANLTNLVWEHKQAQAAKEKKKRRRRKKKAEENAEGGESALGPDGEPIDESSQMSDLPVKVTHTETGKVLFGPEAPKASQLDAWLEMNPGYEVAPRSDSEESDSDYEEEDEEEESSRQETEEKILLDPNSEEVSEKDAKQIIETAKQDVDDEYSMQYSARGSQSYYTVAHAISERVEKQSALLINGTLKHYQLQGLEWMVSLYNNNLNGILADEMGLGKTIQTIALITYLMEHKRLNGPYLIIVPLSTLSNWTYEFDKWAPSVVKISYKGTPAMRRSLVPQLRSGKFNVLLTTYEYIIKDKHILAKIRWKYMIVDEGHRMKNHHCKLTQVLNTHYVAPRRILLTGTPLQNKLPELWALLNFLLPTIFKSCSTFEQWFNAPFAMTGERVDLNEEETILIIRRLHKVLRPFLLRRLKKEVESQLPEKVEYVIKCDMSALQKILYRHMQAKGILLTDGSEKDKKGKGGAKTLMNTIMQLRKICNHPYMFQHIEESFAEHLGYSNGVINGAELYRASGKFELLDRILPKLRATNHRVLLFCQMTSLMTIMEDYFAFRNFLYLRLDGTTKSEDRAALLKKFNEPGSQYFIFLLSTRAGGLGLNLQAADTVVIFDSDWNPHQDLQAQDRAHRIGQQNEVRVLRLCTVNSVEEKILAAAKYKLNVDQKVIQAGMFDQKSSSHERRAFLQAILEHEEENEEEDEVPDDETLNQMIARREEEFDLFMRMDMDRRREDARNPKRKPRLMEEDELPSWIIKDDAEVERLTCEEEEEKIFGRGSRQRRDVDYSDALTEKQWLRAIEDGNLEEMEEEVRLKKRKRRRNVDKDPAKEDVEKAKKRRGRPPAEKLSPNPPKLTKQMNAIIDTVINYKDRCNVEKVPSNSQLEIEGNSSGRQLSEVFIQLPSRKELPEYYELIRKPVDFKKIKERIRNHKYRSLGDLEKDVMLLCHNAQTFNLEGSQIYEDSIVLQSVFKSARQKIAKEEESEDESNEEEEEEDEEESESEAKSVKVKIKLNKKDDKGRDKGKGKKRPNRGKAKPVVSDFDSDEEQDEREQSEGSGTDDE
Assay: SMARCA2 HiBiT degradation assay in HeLa cells
Type: cell-based
Settings: 18 hours
observable: DC50

Please review the entries below; each comes with its answer.
# compound, DC50
measured = [
    ("Cc1ncsc1-c1ccc([C@H](C)NC(=O)[C@@H]2C[C@@H](O)CN2C(=O)[C@@H](c2cc(OCCN3CCC(N4CCN5c6cc(-c7ccccc7O)nnc6N[C@H](C)[C@@H]5C4)CC3)no2)C(C)C)cc1", "1 to 10 nM"),
    ("CC[C@]12CNc3nnc(-c4ccccc4O)cc3N1C[C@H](Oc1ccc(CN3CCC(c4ccc5c(c4)C(=O)N([C@H]4CCC(=O)NC4=O)C5)CC3)cn1)C2", "0.1 to 1 nM"),
    ("CC[C@]12CNc3nnc(-c4ccccc4O)cc3N1C[C@H](Oc1ccc(CN3CCN(c4ccc5c(c4)C(=O)N([C@H]4CCC(=O)NC4=O)C5)CC3)cn1)C2", "< 0.1 nM"),
    ("C[C@]12CNc3nnc(-c4ccccc4O)cc3N1C[C@H](Oc1ccc(CN3CCN(c4ccc5c(c4)C(=O)N([C@H]4CCC(=O)NC4=O)C5)CC3)cn1)C2", "< 0.1 nM"),
]

Task item: Which DC50 reading was recorded for the compound `CC[C@]12CNc3nnc(-c4ccccc4O)cc3N1C[C@H](Oc1ncc(CN3CCN(c4ccc5c(c4)C(=O)N([C@H]4CCC(=O)NC4=O)C5)CC3)nc1C)C2` ?
Reply: < 0.1 nM

Task item: Which DC50 reading was recorded for the compound Cc1cc(CN2CCN(c3ccc4c(c3)C(=O)N([C@H]3CCC(=O)NC3=O)C4)CC2)cnc1O[C@H]1CN2c3cc(-c4ccccc4O)nnc3NC[C@]2(C)C1 [Compound 4] ?
Reply: < 0.1 nM

---

Molecular target: SMARCA4 (Homo sapiens, UniProt P51532)
Sequence (P51532 whole entry): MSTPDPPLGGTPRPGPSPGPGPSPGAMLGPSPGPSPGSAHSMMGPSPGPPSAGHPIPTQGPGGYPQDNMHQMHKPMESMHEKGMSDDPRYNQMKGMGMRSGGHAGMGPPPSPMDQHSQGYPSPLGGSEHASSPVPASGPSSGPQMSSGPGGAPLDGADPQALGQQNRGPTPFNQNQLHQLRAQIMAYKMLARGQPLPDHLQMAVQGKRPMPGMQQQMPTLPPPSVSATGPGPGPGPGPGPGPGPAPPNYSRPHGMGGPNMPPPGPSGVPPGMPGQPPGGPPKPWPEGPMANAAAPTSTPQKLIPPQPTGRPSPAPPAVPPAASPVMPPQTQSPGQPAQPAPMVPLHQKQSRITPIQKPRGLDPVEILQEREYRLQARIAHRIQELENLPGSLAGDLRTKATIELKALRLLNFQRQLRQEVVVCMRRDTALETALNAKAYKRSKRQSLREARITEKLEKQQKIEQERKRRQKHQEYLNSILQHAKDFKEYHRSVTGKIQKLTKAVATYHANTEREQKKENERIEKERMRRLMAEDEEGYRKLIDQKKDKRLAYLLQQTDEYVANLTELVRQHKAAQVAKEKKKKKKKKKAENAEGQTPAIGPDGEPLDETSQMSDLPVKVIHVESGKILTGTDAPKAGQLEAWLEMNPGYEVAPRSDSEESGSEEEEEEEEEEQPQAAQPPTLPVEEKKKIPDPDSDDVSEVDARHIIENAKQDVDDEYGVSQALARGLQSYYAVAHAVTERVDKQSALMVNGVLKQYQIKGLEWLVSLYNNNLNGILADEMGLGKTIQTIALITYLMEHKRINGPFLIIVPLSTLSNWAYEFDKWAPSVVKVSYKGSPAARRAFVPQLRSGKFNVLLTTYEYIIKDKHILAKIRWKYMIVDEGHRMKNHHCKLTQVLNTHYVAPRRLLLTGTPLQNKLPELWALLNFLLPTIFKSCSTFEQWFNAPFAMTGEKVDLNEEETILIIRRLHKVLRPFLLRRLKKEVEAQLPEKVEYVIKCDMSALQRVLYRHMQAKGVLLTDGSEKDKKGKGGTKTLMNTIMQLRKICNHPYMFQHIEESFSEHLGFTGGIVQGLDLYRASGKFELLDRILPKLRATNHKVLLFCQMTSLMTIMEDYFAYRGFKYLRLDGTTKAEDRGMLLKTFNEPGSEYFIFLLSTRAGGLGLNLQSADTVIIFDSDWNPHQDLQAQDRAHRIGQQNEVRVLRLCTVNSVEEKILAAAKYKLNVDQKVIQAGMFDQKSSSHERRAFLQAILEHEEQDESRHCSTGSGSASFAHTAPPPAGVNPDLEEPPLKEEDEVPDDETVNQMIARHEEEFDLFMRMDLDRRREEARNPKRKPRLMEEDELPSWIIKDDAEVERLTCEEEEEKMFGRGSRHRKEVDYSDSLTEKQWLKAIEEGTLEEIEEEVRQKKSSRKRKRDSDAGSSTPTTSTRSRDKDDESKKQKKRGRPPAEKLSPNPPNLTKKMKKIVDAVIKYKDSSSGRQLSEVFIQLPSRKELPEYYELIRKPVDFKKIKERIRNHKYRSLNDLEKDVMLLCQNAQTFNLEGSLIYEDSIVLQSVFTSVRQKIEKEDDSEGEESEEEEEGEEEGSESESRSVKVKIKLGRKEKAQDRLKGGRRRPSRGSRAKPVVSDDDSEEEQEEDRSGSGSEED
Assay: SMARCA4 HiBiT degradation assay in HeLa cells
Assay type: cell-based
Design: SMARCA4-HiBiT knock-in Hela monoclonal cell (CS3023226) were purchased from Promega; host or cells: HeLa SMARCA4-HiBiT knock-in monoclonal cells (heterozygous)
Details: 18 hours
observable: DC50

# molecule, DC50
rows = [
    ("Cc1ncsc1-c1ccc([C@H](C)NC(=O)[C@@H]2C[C@@H](O)CN2C(=O)[C@@H](c2cc(OCCN3CCC(N4CCN5c6cc(-c7ccccc7O)nnc6N[C@@H](C)[C@@H]5C4)CC3)no2)C(C)C)cc1", "1 to 10 nM"),
]

Task item: Which DC50 reading was recorded for the molecule `Cc1ncsc1-c1ccc([C@H](C)NC(=O)[C@@H]2C[C@@H](O)CN2C(=O)[C@@H](c2cc(OCCN3CCC(N4CCN5c6cc(-c7ccccc7O)nnc6N[C@H](C)[C@H]5C4)CC3)no2)C(C)C)cc1` ?
Reply: 1 to 10 nM

Task item: Which DC50 reading was recorded for the molecule Cc1cc(CN2CCN(c3ccc4c(c3)C(=O)N([C@H]3CCC(=O)NC3=O)C4)CC2)cnc1O[C@H]1CN2c3cc(-c4ccccc4O)nnc3NC[C@]2(C)C1 [Compound 3] ?
Reply: 0.1 to 1 nM

Task item: Which DC50 reading was recorded for the molecule Cc1cc(CN2CCN(c3ccc4c(c3)C(=O)N([C@H]3CCC(=O)NC3=O)C4)CC2)cnc1O[C@H]1CN2c3cc(-c4ccccc4O)nnc3NC[C@]2(C)C1 [Compound 4] ?
Reply: 0.1 to 1 nM

Task item: Which DC50 reading was recorded for the molecule `CC[C@]12CNc3nnc(-c4ccccc4O)cc3N1C[C@H](Oc1ccc(CN3CCN(c4ccc5c(c4)C(=O)N([C@H]4CCC(=O)NC4=O)C5)CC3)cn1)C2` ?
Reply: 0.1 to 1 nM
